# Tested on: HOP-62
# Assay Summary: NCI tumour cell line growth inhibition, 48 h
Calls of active or inactive are those of the source. Rule as the data show it: active = GI50 up to about 1.1 µM and inactive = higher.

Compound	GI50
O=C(O)C1(C(O)c2ccccc2)SCCCS1 (stereo unspecified)	> 10 µM (inactive)
COc1ccc2c3c1OC1C(F)C=CC4(O)C(C2)NCCC314 (stereo unspecified)	2.11 µM (inactive)
NC(=O)CO/N=C1/C(=C2/C(=O)Nc3ccccc32)Nc2ccccc21	22.6 µM (inactive)
N=C(N)N/N=C/c1c(Cl)nc2sccn12	21.5 µM (inactive)
c1ccc(-c2sc(-c3ccccc3)c3c2C(c2ccccc2)c2c(-c4ccccc4)sc(-c4ccccc4)c2C3c2ccccc2)cc1 (stereo unspecified)	> 100 µM (inactive)
CCCCCCCCCC(=O)NCCc1c[nH]c2ccc(OC)cc12	16.4 µM (inactive)
Oc1ccc(CCNCc2cc3c(cc2Br)OCO3)cc1	79.3 µM (inactive)
CN1c2ccccc2N(C)C2C1N(C)c1ccccc1N2C (stereo unspecified)	34.3 µM (inactive)
CC1CC(c2ccccc2)Nc2nc3ccccc3n21 (stereo unspecified)	> 100 µM (inactive)
c1c2c(cc(-n3nnc4c3CCCCCC4)c1-n1nnc3c1CCCCCC3)CCCCCC2	17.8 µM (inactive)
CC1(C)[C@@H]2CC[C@]1(C)[C@H](OC(=O)/C=C/c1ccccc1)C2	30.2 µM (inactive)
